Test system: Rattus norvegicus
Assay: Antiinflammatory activity against carrageenan-induced paw oedema in Albino rat at 100 mg/kg, po after 3 hrs
Type: functional
So I've got a bunch of compounds here, and I need their Activity values.
Note: unit % is implicit; provide only the numeric part.

Query :: Quickly give me recorded Activity for CC1=CC(C)(C)NC(=S)N1c1n[nH]c(N2C(=S)NC(C)(C)C=C2C)n1
Result :: 0

Query :: Identify measured Activity associated with CC1(C)CC(C)(O)N(CCCn2ccnc2)C(=S)N1 (stereo not drawn)
Result :: 35

Query :: Could you please provide reported Activity for CC1CC(O)N(CCCC2OCC3(CO2)COC(CCCN2C(=S)NC(C)CC2O)OC3)C(=S)N1 (stereo not drawn) ? Thanks!
Result :: 0

Query :: Could you please provide reported Activity for CC1(C)CC(C)(O)N(CCc2c[nH]cn2)C(=S)N1 (stereo not drawn) ? Thanks!
Result :: 65

Query :: Give recorded Activity. CC1=CC(C)(C)NC(=S)N1c1ccccc1C#N
Result :: 0

Query :: Give the reported value of Activity for this record: CC1(C)CC(C)(O)N(CCCN2CCCC2=O)C(=S)N1 (stereo not drawn)
Result :: 40.3

Query :: Report measured Activity; entry is CC1=CC(C)(C)NC(=S)N1CCCC1OCC2(CO1)COC(CCCN1C(=S)NC(C)(C)C=C1C)OC2 (stereo not drawn)
Result :: 31.8

Query :: Query Activity for CC(C)Cc1ccc(C(C)C(=O)O)cc1 (stereo not drawn)
Result :: 66.8

Hello, the source for this data is ChEMBL document CHEMBL1147924, in case you need it.
